Values from ChEMBL document CHEMBL4229424

For each entry below, report its pIC50 value.
TARGET_UNDER_TEST: Histone deacetylase 1 (Homo sapiens)
Sequence (Q13547 whole entry): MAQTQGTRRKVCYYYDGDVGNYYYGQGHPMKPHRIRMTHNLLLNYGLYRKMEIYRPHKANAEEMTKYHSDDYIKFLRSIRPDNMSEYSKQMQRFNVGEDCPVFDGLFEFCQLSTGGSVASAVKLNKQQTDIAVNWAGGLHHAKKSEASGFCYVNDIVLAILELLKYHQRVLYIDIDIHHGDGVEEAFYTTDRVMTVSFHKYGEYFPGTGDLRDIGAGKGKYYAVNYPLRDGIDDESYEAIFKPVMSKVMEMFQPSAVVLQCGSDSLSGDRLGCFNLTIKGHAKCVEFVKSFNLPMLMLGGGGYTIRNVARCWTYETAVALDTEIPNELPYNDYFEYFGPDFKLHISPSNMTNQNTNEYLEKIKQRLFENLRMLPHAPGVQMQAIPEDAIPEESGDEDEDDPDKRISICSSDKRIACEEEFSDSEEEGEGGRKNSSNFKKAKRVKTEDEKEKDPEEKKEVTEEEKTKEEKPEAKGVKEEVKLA
One number for each entry, as −log10 of the molar value.

GIVEN_SMILES	MEASURED_QUANTITY	EXPERIMENTAL_RESULT
COc1ccc2nc3cc(Cl)ccc3c(Nc3ccc(-c4cn(CCCCCC(=O)NO)nn4)cc3)c2c1	pIC50	6.51
O=C(CCc1ccc(Nc2c3ccccc3nc3ccccc23)cc1)NO	pIC50	6.87
COc1ccc2nc3cc(Cl)ccc3c(Nc3cccc(-c4cn(CCCCCC(=O)NO)nn4)c3)c2c1	pIC50	6.65

Now examine the next entry.
Task: So what's the measured pIC50 for this one? O=C(CCCCCCn1cc(-c2cccc(Nc3c4ccccc4nc4ccccc34)c2)nn1)NO
Result: 8.29

----------
TARGET_UNDER_TEST: Protein deacetylase HDAC6 (Homo sapiens, UniProt Q9UBN7)
Sequence (Q9UBN7 whole entry): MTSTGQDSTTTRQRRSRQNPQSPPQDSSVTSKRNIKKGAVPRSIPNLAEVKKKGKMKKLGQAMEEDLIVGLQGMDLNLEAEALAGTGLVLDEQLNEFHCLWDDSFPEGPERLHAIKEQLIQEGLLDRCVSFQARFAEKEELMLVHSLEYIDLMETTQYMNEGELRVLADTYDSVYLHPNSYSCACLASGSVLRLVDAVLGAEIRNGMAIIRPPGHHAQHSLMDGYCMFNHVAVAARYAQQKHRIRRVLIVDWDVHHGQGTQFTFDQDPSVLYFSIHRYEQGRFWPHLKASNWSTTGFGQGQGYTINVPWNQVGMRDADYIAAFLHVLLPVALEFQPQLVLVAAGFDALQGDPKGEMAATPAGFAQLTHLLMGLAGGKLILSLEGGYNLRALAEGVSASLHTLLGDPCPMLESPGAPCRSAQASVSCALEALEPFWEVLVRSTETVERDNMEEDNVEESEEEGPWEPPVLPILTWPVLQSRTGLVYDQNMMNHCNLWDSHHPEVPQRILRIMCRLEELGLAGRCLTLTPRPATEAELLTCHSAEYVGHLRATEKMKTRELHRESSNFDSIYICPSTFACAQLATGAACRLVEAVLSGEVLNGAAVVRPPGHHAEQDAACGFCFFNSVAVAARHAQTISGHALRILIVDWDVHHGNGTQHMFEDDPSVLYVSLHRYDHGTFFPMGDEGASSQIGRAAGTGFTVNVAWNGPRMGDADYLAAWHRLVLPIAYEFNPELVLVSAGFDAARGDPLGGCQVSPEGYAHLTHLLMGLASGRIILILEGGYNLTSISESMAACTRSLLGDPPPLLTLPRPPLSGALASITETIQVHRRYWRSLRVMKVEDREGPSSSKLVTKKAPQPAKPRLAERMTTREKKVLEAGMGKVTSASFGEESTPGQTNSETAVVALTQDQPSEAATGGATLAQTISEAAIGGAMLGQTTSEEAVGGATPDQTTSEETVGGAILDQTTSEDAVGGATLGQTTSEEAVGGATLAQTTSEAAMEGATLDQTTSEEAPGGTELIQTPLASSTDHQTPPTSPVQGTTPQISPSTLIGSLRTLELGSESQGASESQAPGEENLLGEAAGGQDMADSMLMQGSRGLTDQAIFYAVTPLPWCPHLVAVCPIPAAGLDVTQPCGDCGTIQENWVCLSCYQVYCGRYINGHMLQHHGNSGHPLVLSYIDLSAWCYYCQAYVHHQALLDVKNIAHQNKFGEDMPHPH
MEASURED_QUANTITY: pIC50
One number for each entry, as −log10 of the molar value.

Worked set:
GIVEN_SMILES	pIC50
O=C(CCCCCCn1cc(-c2ccc(Nc3c4ccccc4nc4ccccc34)cc2)nn1)NO	8.54
COc1ccc2nc3cc(Cl)ccc3c(Nc3cccc(-c4cn(CCCCCC(=O)NO)nn4)c3)c2c1	7.88
O=C(CCc1ccc(Nc2c3ccccc3nc3ccccc23)cc1)NO	7.00

# next compound below
Task: API: value(readout=pIC50, system=Protein deacetylase HDAC6 (Homo sapiens, UniProt Q9UBN7)) for record COc1ccc2nc3cc(Cl)ccc3c(Nc3ccc(-c4cn(CCCCCC(=O)NO)nn4)cc3)c2c1
Result: 7.54
